These entries and their values trace back to ChEMBL document CHEMBL2413042.

Test system: Rattus norvegicus
Assay: Anticonvulsant activity in Wistar albino rat assessed as protection against subcutaneous pentylenetetrazole-induced mortality at 50 mg/kg, po administered 1 hr prior to pentylenetetrazole challenge measured for 300 secs relative to control
Assay type: functional
Attribute: Activity
Quick reminder: number only, in %, skip the unit.

Past entries and their recorded results:
>>> print(df.to_string())
                            compound_string  measured_parameter  unit_name  obs_value
0  COC(=O)C1=C(C)N(c2ccc([N+](=O)[O-])cc2)C(C)=C(C(=O)OC)C1c1ccc2c(c1)OCO2            Activity          %          0
1  COC(=O)C1=C(C)NC(C)=C(C(=O)OC)C1c1ccc2c(c1)OCO2            Activity          %          0
2  COC(=O)C1=C(C)N(c2ccccc2)C(C)=C(C(=O)OC)C1c1ccc2c(c1)OCO2            Activity          %          0

May I ask what Activity has been recorded for CCOC(=O)C1=C(C)N(c2cccc([N+](=O)[O-])c2)C(C)=C(C(=O)OCC)C1c1ccc2c(c1)OCO2 ?
33.3

Entry CCOC(=O)C1=C(C)N(c2ccc([N+](=O)[O-])cc2)C(C)=C(C(=O)OCC)C1c1ccc2c(c1)OCO2 : reported Activity = ?
66.6

Item under review: CCOC(=O)C1=C(C)N(c2ccccc2)C(C)=C(C(=O)OCC)C1c1ccc2c(c1)OCO2 . Reported Activity?
66.6

// lookup Activity for CCOC(=O)C1=C(C)N(c2ccccc2[N+](=O)[O-])C(C)=C(C(=O)OCC)C1c1ccc2c(c1)OCO2
66.6

* * *

Tested on: Radical scavenging activity
Experiment: Antioxidant activity assessed as DPPH free radical scavenging activity under dark condition after 30 mins
Format: functional
Listed next: entries and their corresponding log10 IC50.
Note the log scale: values are log10 of IC50 expressed in µg/mL.

# annotated cases, reported log10 IC50 shown
In [3]: df
Out[3]:
                                   compound  measured_parameter  obs_value
0  CCOC(=O)C1=C(C)N(c2cccc([N+](=O)[O-])c2)C(C)=C(C(=O)OCC)C1c1ccc2c(c1)OCO2          log10 IC50       2.56
1  COC(=O)C1=C(C)N(c2ccccc2)C(C)=C(C(=O)OC)C1c1ccc2c(c1)OCO2          log10 IC50       2.73
2  CCOC(=O)C1=C(C)N(c2ccccc2[N+](=O)[O-])C(C)=C(C(=O)OCC)C1c1ccc2c(c1)OCO2          log10 IC50       2.94
3  COC(=O)C1=C(C)N(c2ccc([N+](=O)[O-])cc2)C(C)=C(C(=O)OC)C1c1ccc2c(c1)OCO2          log10 IC50       3.11
4  O=C1O[C@H]([C@@H](O)CO)C(O)=C1O [ASCORBIC ACID]          log10 IC50       1.51
5  CCOC(=O)C1=C(C)NC(C)=C(C(=O)OC)C1c1ccc2c(c1)OCO2 (centres undefined)          log10 IC50       2.67
6  CCOC(=O)C1=C(C)N(c2ccccc2)C(C)=C(C(=O)OC)C1c1ccc2c(c1)OCO2 (centres undefined)          log10 IC50       2.87
7  CCOC(=O)C1=C(C)N(c2ccccc2[N+](=O)[O-])C(C)=C(C(=O)OC)C1c1ccc2c(c1)OCO2 (centres undefined)          log10 IC50       2.97

Moving on to another compound below.
Consider the compound shown here: CCOC(=O)C1=C(C)NC(C)=C(C(=O)OCC)C1c1ccc2c(c1)OCO2 What is its recorded log10 IC50?
2.57

* * *

Test system: Radical scavenging activity
Assay: Antioxidant activity assessed as DPPH free radical scavenging activity under dark condition after 30 mins
Assay type: functional
Recorded IC50 by entry
Output spec: scalar in µg/mL, unitless text.

// below: answered compounds
                                   compound                tested_target  unit_name  obs_value
0  CCOC(=O)C1=C(C)N(c2cccc([N+](=O)[O-])c2)C(C)=C(C(=O)OC)C1c1ccc2c(c1)OCO2 (configuration not stated)  Radical scavenging activity      µg/mL        386
1  COC(=O)C1=C(C)N(c2cccc([N+](=O)[O-])c2)C(C)=C(C(=O)OC)C1c1ccc2c(c1)OCO2  Radical scavenging activity      µg/mL        521
2  CCOC(=O)C1=C(C)N(c2ccccc2)C(C)=C(C(=O)OCC)C1c1ccc2c(c1)OCO2  Radical scavenging activity      µg/mL        443
3  COC(=O)C1=C(C)N(c2ccccc2[N+](=O)[O-])C(C)=C(C(=O)OC)C1c1ccc2c(c1)OCO2  Radical scavenging activity      µg/mL       2354
4  COC(=O)C1=C(C)NC(C)=C(C(=O)OC)C1c1ccc2c(c1)OCO2  Radical scavenging activity      µg/mL        604
5  CCOC(=O)C1=C(C)N(c2ccc([N+](=O)[O-])cc2)C(C)=C(C(=O)OCC)C1c1ccc2c(c1)OCO2  Radical scavenging activity      µg/mL        597

Then this compound:
Field request: IC50 | item: CCOC(=O)C1=C(C)N(c2ccc([N+](=O)[O-])cc2)C(C)=C(C(=O)OC)C1c1ccc2c(c1)OCO2 (configuration not stated)
854

* * *

System: Mus musculus
Assay: Antinociceptive activity in Swiss albino mouse assessed as reduction of capsaicin-induced flinching at 10 mg/kg, po administered 1 hr followed by capsaicin challenge
Type: functional
Parameters: scale not given: the % may be the effect or the level left
Measured Activity by item
Your answer should be a plain number; it is taken to be in %.

Previously resolved entries follow.
>>> df
                                   compound  unit_name  obs_value
0  COC(=O)C1=C(C)N(c2ccccc2)C(C)=C(C(=O)OC)C1c1ccc2c(c1)OCO2          %          0
1  CCOC(=O)C1=C(C)N(c2ccc([N+](=O)[O-])cc2)C(C)=C(C(=O)OC)C1c1ccc2c(c1)OCO2 (centres undefined)          %          4
2  COC(=O)C1=C(C)NC(C)=C(C(=O)OC)C1c1ccc2c(c1)OCO2          %         21

What Activity appears in the records for this compound with Mus musculus? CCOC(=O)C1=C(C)NC(C)=C(C(=O)OCC)C1c1ccc2c(c1)OCO2
8

* * *

System: Rattus norvegicus
Assay: Anticonvulsant activity in Wistar albino rat assessed as protection against subcutaneous pentylenetetrazole-induced mortality at 50 mg/kg, po administered 1 hr prior to pentylenetetrazole challenge measured for 300 secs relative to control
Assay type: functional
measured-parameter: Activity (%)
The answer is to be given in %; state only the numeric part.

# get_value(readout='Activity', item= CCOC(=O)C1=C(C)NC(C)=C(C(=O)OCC)C1c1ccc2c(c1)OCO2 )
100

State the recorded Activity for this entry: CCOC(=O)C1=C(C)N(c2cccc([N+](=O)[O-])c2)C(C)=C(C(=O)OC)C1c1ccc2c(c1)OCO2 (stereo not drawn)
0

Requested field: Activity. Item: CCOC(=O)C1=C(C)NC(C)=C(C(=O)OC)C1c1ccc2c(c1)OCO2 (stereo not drawn)
33.3

I would be grateful if you could share the reported Activity for CCOC(=O)C1=C(C)N(c2ccc([N+](=O)[O-])cc2)C(C)=C(C(=O)OC)C1c1ccc2c(c1)OCO2 (stereo not drawn) .
33.3

// returns reported Activity for input CCOC(=O)C1=C(C)N(c2ccccc2)C(C)=C(C(=O)OC)C1c1ccc2c(c1)OCO2 (stereo not drawn)
0

Recorded Activity of COC(=O)C1=C(C)N(c2cccc([N+](=O)[O-])c2)C(C)=C(C(=O)OC)C1c1ccc2c(c1)OCO2 , please.
0

Request the reported Activity associated with CCOC(=O)C1=C(C)N(c2ccccc2[N+](=O)[O-])C(C)=C(C(=O)OC)C1c1ccc2c(c1)OCO2 (stereo not drawn)
33.3

Sample COC(=O)C1=C(C)N(c2ccccc2[N+](=O)[O-])C(C)=C(C(=O)OC)C1c1ccc2c(c1)OCO2 — what was its Activity?
0
